- Species on record: Rattus norvegicus
- assay.overview: Open TG-GATES - Regimen: Single
- Assay type: toxicity, organism-based, Sprague-Dawley
- Set-up: regimen Single, gender Male, age 6 weeks
- condition.description: in vivo, po, 0 mg/kg, 6 h, tissue Plasma, route gavage, dose level Control
readout.type: AST (IU/L)
Enter your answer as a number in IU/L; do not include the unit.

Example entries and their recorded answers appear below.
molecule: Cc1cccc(C)c1OCC(C)N (centres undefined)
unit.info: IU/L
AST: 70.2

molecule: CCOC(=O)C(C)(C)Oc1ccc(Cl)cc1 [CLOFIBRATE]
unit.info: IU/L
AST: 67.2

molecule: O=[N+]([O-])c1ccc(O)c([N+](=O)[O-])c1
unit.info: IU/L
AST: 63.4

molecule: C[C@H]1C(=O)O[C@@H]2CCN3CC=C(COC(=O)[C@](C)(O)[C@]1(C)O)[C@H]23
unit.info: IU/L
AST: 71.6

molecule: Cc1ccc2cc3c(ccc4ccccc43)c3c2c1CC3
unit.info: IU/L
AST: 69.6

Name the reported AST value associated with the molecule C[C@H]1O[C@H](O[C@H]2[C@H](O)[C@@H](O)[C@@H](O[C@H]3[C@H](O)[C@@H](O)C(O)O[C@@H]3CO)O[C@@H]2CO)[C@H](O)[C@@H](O)[C@@H]1N[C@H]1C=C(CO)[C@@H](O)[C@H](O)[C@H]1O (some centres undefined)
72.2

----------
- Organism: Rattus norvegicus
- assay.overview: Open TG-GATES - Regimen: Single
- Format: toxicity, organism-based, Sprague-Dawley
- Design: regimen Single, gender Male, age 6 weeks
- condition.description: in vivo, po, 0 mg/kg, 3 h, tissue Blood, route gavage, dose level Control
readout.type: MCH (pg)
Reply numerically in pg, unit not repeated.

Worked set:
compound: C=C(C)[C@H]1Cc2c(ccc3c2O[C@@H]2COc4cc(OC)c(OC)cc4[C@@H]2C3=O)O1
unit.info: pg
MCH: 21
--
compound: C[C@H]1O[C@H](O[C@H]2[C@H](O)[C@@H](O)[C@@H](O[C@H]3[C@H](O)[C@@H](O)C(O)O[C@@H]3CO)O[C@@H]2CO)[C@H](O)[C@@H](O)[C@@H]1N[C@H]1C=C(CO)[C@@H](O)[C@H](O)[C@H]1O (stereo not given in full)
unit.info: pg
MCH: 20.8
--
compound: Cc1ccc2cc3c(ccc4ccccc43)c3c2c1CC3
unit.info: pg
MCH: 20.8
--
compound: CCOC(=O)C(C)(C)Oc1ccc(Cl)cc1 [CLOFIBRATE]
unit.info: pg
MCH: 21.5
--
compound: C[C@H]1C(=O)O[C@@H]2CCN3CC=C(COC(=O)[C@](C)(O)[C@]1(C)O)[C@H]23
unit.info: pg
MCH: 21.8

Recorded MCH of OCCN1CCN(CCCN2c3ccccc3Sc3ccc(C(F)(F)F)cc32)CC1 , please.
21.2

For the compound shown here, Cc1cccc(C)c1OCC(C)N (stereo not given) , give the reported MCH.
21

Give the measured MCH of Cn1cc[nH]c1=S .
22.3

Would you kindly share the measured MCH for O=C1CN(/N=C/c2ccc([N+](=O)[O-])o2)C(=O)N1 ?
21.5

Can you look up the measured MCH of O=[N+]([O-])c1ccc(O)c([N+](=O)[O-])c1 for me?
21.6

----------
Below is a list of entries, each paired with its recorded ALP value.
- Species: Rattus norvegicus
- assay.overview: Open TG-GATES - Regimen: Daily Repeat
- Format: toxicity, organism-based, Sprague-Dawley
- Set-up: regimen Daily Repeat, gender Male, age 6 weeks
- condition.description: in vivo, po, 0 mg/kg, […], tissue Plasma, route gavage, dose level Control, time 7 day

compound: Cc1cccc(C)c1OCC(C)N (centres undefined) [MEXILETINE]
ALP: 1475.8 IU/L
//
compound: CCOC(=O)C(C)(C)Oc1ccc(Cl)cc1 [CLOFIBRATE]
ALP: 994.8 IU/L
//
compound: C[C@H]1C(=O)O[C@@H]2CCN3CC=C(COC(=O)[C@](C)(O)[C@]1(C)O)[C@H]23 [MONOCROTALINE]
ALP: 1469.6 IU/L
//
compound: O=C1CN(/N=C/c2ccc([N+](=O)[O-])o2)C(=O)N1 [NITROFURANTOIN]
ALP: 943.4 IU/L
//
compound: C=C(C)[C@H]1Cc2c(ccc3c2O[C@@H]2COc4cc(OC)c(OC)cc4[C@@H]2C3=O)O1 [ROTENONE]
ALP: 1286.8 IU/L

GET /values?readout=ALP&item= OCCN1CCN(CCCN2c3ccccc3Sc3ccc(C(F)(F)F)cc32)CC1 [FLUPHENAZINE]
774.2 IU/L

Entry under review: O=[N+]([O-])c1ccc(O)c([N+](=O)[O-])c1 [2,4-DINITROPHENOL] . Reported ALP?
1556.6 IU/L

Name the reported ALP value associated with the compound C[C@H]1O[C@H](O[C@H]2[C@H](O)[C@@H](O)[C@@H](O[C@H]3[C@H](O)[C@@H](O)C(O)O[C@@H]3CO)O[C@@H]2CO)[C@H](O)[C@@H](O)[C@@H]1N[C@H]1C=C(CO)[C@@H](O)[C@H](O)[C@H]1O (some centres undefined) [ACARBOSE]
1472.4 IU/L

What value of ALP has been reported for the following compound? Cn1cc[nH]c1=S [METHIMAZOLE]
1790.2 IU/L

----------
# maps each entry to its TERMINAL_BW
- Species on record: Rattus norvegicus
- assay.overview: Open TG-GATES - Regimen: Daily Repeat
- Assay type: toxicity, organism-based, Sprague-Dawley
- Set-up: regimen Daily Repeat, gender Male, age 6 weeks
- condition.description: in vivo, po, 0 mg/kg, […], route gavage, dose level Control, time 28 day
Field: numeric (g). Do not append units.

// known answers, use as guide
compound: C=C(C)[C@H]1Cc2c(ccc3c2O[C@@H]2COc4cc(OC)c(OC)cc4[C@@H]2C3=O)O1
unit.info: g
numeric.result: 378.4

compound: C[C@H]1O[C@H](O[C@H]2[C@H](O)[C@@H](O)[C@@H](O[C@H]3[C@H](O)[C@@H](O)C(O)O[C@@H]3CO)O[C@@H]2CO)[C@H](O)[C@@H](O)[C@@H]1N[C@H]1C=C(CO)[C@@H](O)[C@H](O)[C@H]1O (some centres undefined)
unit.info: g
numeric.result: 390.9

compound: OCCN1CCN(CCCN2c3ccccc3Sc3ccc(C(F)(F)F)cc32)CC1
unit.info: g
numeric.result: 402.6

compound: CCOC(=O)C(C)(C)Oc1ccc(Cl)cc1 [CLOFIBRATE]
unit.info: g
numeric.result: 392.8

compound: Cn1cc[nH]c1=S
unit.info: g
numeric.result: 373.3

compound: C[C@H]1C(=O)O[C@@H]2CCN3CC=C(COC(=O)[C@](C)(O)[C@]1(C)O)[C@H]23
unit.info: g
numeric.result: 368.8

// query TERMINAL_BW value for entry O=C1CN(/N=C/c2ccc([N+](=O)[O-])o2)C(=O)N1
422.1

Need TERMINAL_BW of Cc1cccc(C)c1OCC(C)N (centres undefined) , thanks.
408.3

// lookup TERMINAL_BW for O=[N+]([O-])c1ccc(O)c([N+](=O)[O-])c1
452.7

----------
// reported AST for each item listed
- Species on record: Rattus norvegicus
- assay.overview: Open TG-GATES - Regimen: Daily Repeat
- Type: toxicity, organism-based, Sprague-Dawley
- Parameters: regimen Daily Repeat, gender Male, age 6 weeks
- condition.description: in vivo, po, 0 mg/kg, 72 h, tissue Plasma, route gavage, dose level Control, time 3 day
Write down the numeric answer in IU/L and omit the unit.

compound: C=C(C)[C@H]1Cc2c(ccc3c2O[C@@H]2COc4cc(OC)c(OC)cc4[C@@H]2C3=O)O1
numeric.result: 67.4

compound: C[C@H]1O[C@H](O[C@H]2[C@H](O)[C@@H](O)[C@@H](O[C@H]3[C@H](O)[C@@H](O)C(O)O[C@@H]3CO)O[C@@H]2CO)[C@H](O)[C@@H](O)[C@@H]1N[C@H]1C=C(CO)[C@@H](O)[C@H](O)[C@H]1O (some centres undefined)
numeric.result: 71

compound: O=C1CN(/N=C/c2ccc([N+](=O)[O-])o2)C(=O)N1
numeric.result: 68.6

Then this compound:
# get_value(readout='AST', item= Cn1cc[nH]c1=S )
68

----------
Quick list: LIVER per entry.
- Species: Rattus norvegicus
- assay.overview: Open TG-GATES - Regimen: Single
- Assay type: toxicity, organism-based, Sprague-Dawley
- Design: regimen Single, gender Male, age 6 weeks
- condition.description: in vivo, po, 0 mg/kg, 3 h, tissue Liver, route gavage, dose level Control
Supply the numeric figure in g, leaving out any unit text.

# annotated cases, reported LIVER shown
molecule: C[C@H]1C(=O)O[C@@H]2CCN3CC=C(COC(=O)[C@](C)(O)[C@]1(C)O)[C@H]23
LIVER, g: 10.4
//
molecule: C=C(C)[C@H]1Cc2c(ccc3c2O[C@@H]2COc4cc(OC)c(OC)cc4[C@@H]2C3=O)O1
LIVER, g: 9.4

So what does the record say about LIVER for Cc1ccc2cc3c(ccc4ccccc43)c3c2c1CC3 ?
9.3

For the molecule C[C@H]1O[C@H](O[C@H]2[C@H](O)[C@@H](O)[C@@H](O[C@H]3[C@H](O)[C@@H](O)C(O)O[C@@H]3CO)O[C@@H]2CO)[C@H](O)[C@@H](O)[C@@H]1N[C@H]1C=C(CO)[C@@H](O)[C@H](O)[C@H]1O (stereo partly drawn) , what LIVER is on record?
8.8
